- system name: hMC2-R (Homo sapiens, UniProt P41968)
- Construct: expressed in transfected cells; host or cells: HEK-293
- Sequence (P41968 whole entry): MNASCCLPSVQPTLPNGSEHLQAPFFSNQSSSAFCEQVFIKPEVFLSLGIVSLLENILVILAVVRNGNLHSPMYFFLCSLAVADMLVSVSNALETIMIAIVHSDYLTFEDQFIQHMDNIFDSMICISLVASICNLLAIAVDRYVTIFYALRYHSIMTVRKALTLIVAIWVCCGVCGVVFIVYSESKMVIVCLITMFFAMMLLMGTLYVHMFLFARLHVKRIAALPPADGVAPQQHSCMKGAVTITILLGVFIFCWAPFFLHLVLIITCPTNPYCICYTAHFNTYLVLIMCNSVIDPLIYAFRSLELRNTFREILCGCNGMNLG
- assay notes: Competitive binding assay of additional compounds, Table 6 hMC2-R
- assay context: 1 μM, mean of triplicate
Non-standard residues stand in square brackets, D forms with d. No end group written: not given here. *: point of attachment. Tiq = 1,2,3,4-tetrahydroisoquinoline-1-carboxylic acid; Desaminotyrosyl = O=C(CCc1ccc(O)cc1)*; Hydrocinnamoyl = O=C(CCc1ccccc1)*; Tic = O=C(O)[C@@H]1Cc2ccccc2CN1; Ac6c = NC1(C(=O)O)CCCCC1; Nle = CCCC[C@H](N)C(=O)O
% Inhibition of Binding hMC2-R values by entry
Provide only the numeric value, understood in %.

substance	system name	% Inhibition of Binding hMC2-R, %
Idc-D-Phe-Arg-Trp-Cys-NH2	hMC2-R (Homo sapiens, UniProt P41968)	0
3′-(4′-Hydroxyphenyl)propionyl-D-Phe-Arg-Cys-Trp-NH2 (Desaminotyrosyl-[dF]RCW-NH2; not fully specified; printed as 3′-(4′-Hydroxyphenyl)propionyl-D-Phe-Arg-Cys-Trp-NH2)	hMC2-R (Homo sapiens, UniProt P41968)	0
NH2(CH2)6CO-Ser(Bzl)-D-Nal 2′-Arg-Trp-Cys-NH2	hMC2-R (Homo sapiens, UniProt P41968)	69
Pro-D-Phe-Arg-Trp-Cys-NH2 (P[dF]RWC-NH2; also: metal complex)	hMC2-R (Homo sapiens, UniProt P41968)	0
3′-Phenylpropionyl-D-Phe-Arg-Cys-Trp-NH2 (Hydrocinnamoyl-[dF]RCW-NH2; not fully specified; printed as 3′-Phenylpropionyl-D-Phe-Arg-Cys-Trp-NH2)	hMC2-R (Homo sapiens, UniProt P41968)	0

# input Print hMC2-R (Homo sapiens, UniProt P41968) % Inhibition of Binding hMC2-R for 1-amino-1-cyclohexane carboxyl-D-Phe-Arg-Cys-Trp-NH2 ([Ac6c][dF]RCW-NH2; N-terminus assumed; SMILES N=C(N)NCCC[C@H](NC(=O)[C@@H](Cc1ccccc1)NC(=O)C1(N)CCCCC1)C(=O)N[C@@H](CS)C(=O)N[C@@H](Cc1c[nH]c2ccccc12)C(N)=O) .
# output 0

# input Enter measured % Inhibition of Binding hMC2-R, system hMC2-R (Homo sapiens, UniProt P41968), for the substance shown: Heptanoyl-Ser(Bzl)-D-Phe(4′-Cl)-Arg-Bip-Cys-NH2
# output 5

# input Return reported % Inhibition of Binding hMC2-R for target or system hMC2-R (Homo sapiens, UniProt P41968), item Ac-Nle-Ala-Arg-D-Phe-Arg-Cys-Trp-NH2 (Ac-[Nle]AR[dF]RCW-NH2; not fully specified; printed as Ac-Nle-Ala-Arg-D-Phe-Arg-Cys-Trp-NH2) .
# output 26

# input Provide % Inhibition of Binding hMC2-R, recorded with hMC2-R (Homo sapiens, UniProt P41968), of Ac-Nle-Ala-His-D-Phe-Arg-Nal 2′-Cys-NH2
# output 40

# input # return % Inhibition of Binding hMC2-R for D-Nal 2′-D-Phe-Arg-Trp-Cys-NH2 , test system: hMC2-R (Homo sapiens, UniProt P41968)
# output 0

# input Under hMC2-R (Homo sapiens, UniProt P41968), report % Inhibition of Binding hMC2-R for Tic-D-Phe-Arg-Trp-Cys-NH2 ([Tic][dF]RWC-NH2; also: metal complex)
# output 25

# input Identify measured % Inhibition of Binding hMC2-R obtained with hMC2-R (Homo sapiens, UniProt P41968) for Tiq-D-Phe-Arg-Trp-Cys-NH2 (Tiq-[dF]RWC-NH2; also: metal complex) .
# output 7

# input // fetch % Inhibition of Binding hMC2-R for 7-amino-haptanoyl-D-Igl-D-Phe-Arg-Cys-NH2 ; system: hMC2-R (Homo sapiens, UniProt P41968)
# output 0

# input Tell me % Inhibition of Binding hMC2-R of Tic-D-Phe(4′-Cl)-Arg-Trp-Cys-NH2 when tested on hMC2-R (Homo sapiens, UniProt P41968).
# output 71

# input Quote % Inhibition of Binding hMC2-R with test system hMC2-R (Homo sapiens, UniProt P41968) for Amb-D-Phe-Arg-Cys-Trp-NH2
# output 0
